// provenance: ChEMBL document CHEMBL1201862

Test system: A549
experimental-details: NCI tumour cell line growth inhibition, 48 h
Calls of active or inactive are those of the source. Cut-off read from the data, not from the text of the source: active = GI50 up to about 1.1 µM and inactive = higher.
recorded-metric: GI50

Exam item: Suppose we examine the compound O=c1ccn(C2OC(CO)C(O)C2[Se]c2ccccc2)c(=O)[nH]1 (centres undefined) ; what GI50 value has been reported?
Marked response: > 100 µM (inactive)

Exam item: If you can, please state the reported GI50 value of CC1(C)CCCCCCC2CC2CCCCCC(C)(C)C1=O (centres undefined) .
Marked response: 45.7 µM (inactive)

Exam item: Given the entry CCOC(=O)C1COc2cc(-c3cc(=O)c4ccccc4o3)ccc2O1 (centres undefined) , report its measured GI50.
Marked response: > 100 µM (inactive)

Exam item: Field request: GI50 | item: Cn1c(-c2ccco2)ccc1-c1ccc(C=O)o1
Marked response: > 100 µM (inactive)

Exam item: Need GI50, item O=C1c2c[nH]nc2C(c2ccccc2)N1c1ccccc1 (centres undefined)
Marked response: > 10 µM (inactive)

Exam item: Tell me the measured GI50 of O=C1CC[C@@]23CC(=O)O[C@@H]2CCCC3C1 (some centres undefined) , please.
Marked response: > 100 µM (inactive)

Exam item: Please report the recorded GI50 for O=C(NO)c1ccc(O)c(O)c1 .
Marked response: > 100 µM (inactive)

Exam item: Recorded GI50 for C/C(=N\NC(=O)CC(=O)Nc1ccc(C)cc1)c1cc2ccccc2oc1=O , please?
Marked response: > 100 µM (inactive)

Exam item: Requested read-out: GI50. Entry: COc1cc(/C=C/C(=O)OCCc2ccccc2)ccc1O
Marked response: 18.4 µM (inactive)

Exam item: May I ask what GI50 has been recorded for CO/N=C1\CC(NC(=O)CNC(=O)OC(C)(C)C)c2ccsc21 (centres undefined) ?
Marked response: > 100 µM (inactive)

Exam item: Could you share which GI50 value was measured for CS(=O)(=O)NNS(=O)(=O)c1ccc(Br)cc1 ?
Marked response: > 100 µM (inactive)

Exam item: Please report the recorded GI50 for Cc1ccc(C)c2c1C1CCCCC3(OCCCO3)C21O (centres undefined) .
Marked response: > 100 µM (inactive)

Exam item: Need GI50 of Cc1ccc2nc3c(Cl)cc(=O)cc-3sc2c1 , thanks.
Marked response: 19.5 µM (inactive)

Exam item: Which GI50 is reported for this compound? CC(Oc1ccc(Cl)cc1Cl)C(=O)NN1C(=O)CSC1c1ccccc1 (centres undefined)
Marked response: 39.3 µM (inactive)

Exam item: Please look up its GI50: Brc1ccc2c(c1)C1C(CO2)C(c2ccccc2)=NN1c1ccccc1 (centres undefined)
Marked response: > 100 µM (inactive)

Exam item: Fill blank: measured GI50 of the compound Oc1cccc(-c2cc(=S)ss2)c1 is ____.
Marked response: 18.5 µM (inactive)

Exam item: Record request: GI50 value, item COP1(=O)Oc2ccccc2C(=O)C(C(F)(F)F)(C(F)(F)F)O1 (centres undefined)
Marked response: > 100 µM (inactive)

Exam item: Which GI50 is listed for CCCCc1c2c(nc3c1CCCC3O)/C(=C/c1ccccc1)CCC2 (centres undefined) ?
Marked response: 49.5 µM (inactive)

Exam item: Please give the measured GI50 for this compound: CCOC(=O)C(=Cc1ccc(Oc2ccccc2)cc1)C(=O)OCC
Marked response: 8.45 µM (inactive)

Exam item: For COc1cc(C2SCC(=O)N2c2ccc(Cl)cc2)cc(I)c1O (centres undefined) , what is its reported GI50?
Marked response: 46.7 µM (inactive)

Exam item: Look at this compound and give its reported GI50. CC(=O)Nn1c(=S)[nH]c2ccccc21
Marked response: > 100 µM (inactive)

Exam item: Report GI50 for Cc1cn([C@H]2C=C[C@@H](CO)O2)c(=O)[nH]c1=O please.
Marked response: > 1000 µM (inactive)

Exam item: For CC(=O)NNC(=O)C1CCCCN1 (centres undefined) , what is its reported GI50?
Marked response: > 100 µM (inactive)

Exam item: Param item = COC(=O)C(=O)C(C(=O)C(=O)Nc1ccc(Cl)cc1C)c1nc2ccc(C(=O)c3ccccc3)cc2nc1O (centres undefined) ; retrieve measured GI50.
Marked response: > 100 µM (inactive)

====

Tested on: TK-10
experimental-details: NCI tumour cell line growth inhibition, 48 h
Activity calls are given as the source filed them. Cut-off read from the data, not from the text of the source: active = GI50 up to about 1.1 µM and inactive = higher.
recorded-metric: GI50

Exam item: Requested field: GI50. Item: O=c1[nH]c2c(O)cccc2c2cc3c(c(O)c12)OCO3
Marked response: 42.7 µM (inactive)

Exam item: Looking for the measured GI50 of CC1(C)COC(c2cccc(C(=O)c3ccccc3)c2)=N1 , can you help?
Marked response: 90.6 µM (inactive)

Exam item: Consider the compound shown here: CN(CCS(=O)(=O)N1C(=O)C2CCCN2C(=O)[C@@H]1Cc1ccccc1)C(=O)OCc1ccccc1 (stereo partly specified) What is its recorded GI50?
Marked response: 73.3 µM (inactive)

Exam item: What value of GI50 has been recorded for this entry: COP12(OC)NC(=O)OC1(C(F)(F)F)c1ccccc1O2 (stereo unspecified)
Marked response: > 100 µM (inactive)

Exam item: Give the measured GI50 of CC1(C)N=C(N)N=C(N)N1c1cccc(C(=O)Nc2ccc(S(=O)(=O)F)cc2)c1 .
Marked response: > 100 µM (inactive)

Exam item: Any idea what its GI50 is? The compound is O=C1C=C(c2ccccc2)OC1C1Sc2ccccc2NC1=O (stereo unspecified)
Marked response: 9.23 µM (inactive)

Exam item: Entry CO/C(N)=C(C#N)/N=C/c1ccsc1 has what GI50?
Marked response: > 100 µM (inactive)

Exam item: Requested read-out: GI50. Entry: Cc1cc(N(CCC#N)CCC#N)ccc1CC1N=C(c2ccccc2)OC1=O (stereo unspecified)
Marked response: > 100 µM (inactive)

Exam item: Would you mind telling me what GI50 value was observed for CCN1C(=O)C(=C/C=C/c2ccc(N(CC)CC)cc2)C(=O)N(CC)C1=S ?
Marked response: > 100 µM (inactive)

Exam item: Recorded GI50 for OCCN(CCO)c1ccc2c(c1)Cc1ccccc1-2 , please?
Marked response: 22.1 µM (inactive)

Exam item: Give the measured GI50 of CCN(CC)CCC(=O)c1ccc(Oc2ccc(F)cc2)cc1 .
Marked response: 17.5 µM (inactive)

====

Tested on: MDA-MB-435
experimental-details: NCI tumour cell line growth inhibition, 48 h
Active and inactive are the calls of the source. Rule as the data show it: active = GI50 up to about 1.1 µM and inactive = higher.
Answer each item with its documented GI50.

Exam item: I have this compound here, C/N=c1\sc2nc(C#N)c(C#N)nc2n1C , and I need its recorded GI50.
Marked response: 21 µM (inactive)

Exam item: Can you look up the measured GI50 of COc1ccc(/N=N/c2c(C)c(C#N)c(=S)n(C3OC(COC(C)=O)C(OC(C)=O)C(OC(C)=O)C3OC(C)=O)c2C)cc1 (stereo not drawn) for me?
Marked response: > 10 µM (inactive)

Exam item: For the compound CC(=O)N(C)c1cc(NCc2ccccc2)ccc1OCc1ccccc1 , what GI50 is on record?
Marked response: 16.6 µM (inactive)

Exam item: GET /values?readout=GI50&item= O=CN(O)CC(=O)O
Marked response: > 100 µM (inactive)

Exam item: Entry COC(=O)C(=O)C(C(=O)C(=O)Nc1ccccc1OC)c1nc2ccc([N+](=O)[O-])cc2nc1O (stereo not drawn) has what GI50?
Marked response: 35.6 µM (inactive)

Exam item: Query: GI50; subject: CN(C(=O)Cc1cc(Cl)c(Cl)cc1N=C=S)[C@H]1CCCC[C@@H]1N1CCCC1
Marked response: 6.49 µM (inactive)

Exam item: What does the record list as GI50 for CCCCNC(=O)c1cc2c(cc1Cl)Sc1nccn1S2(=O)=O ?
Marked response: 87.1 µM (inactive)

Exam item: // lookup GI50 for CO/N=C1\CC(NC(=O)CNC(=O)OC(C)(C)C)c2ccsc21 (stereo not drawn)
Marked response: 90.6 µM (inactive)

Exam item: Param item = CC(=O)c1c(CO[N+](=O)[O-])[n+]([O-])c2ccccc2[n+]1[O-] ; retrieve measured GI50.
Marked response: 79.6 µM (inactive)

Exam item: Return reported GI50; argument: COc1cc2nc(-c3cccs3)nc(N3CCN(c4ccccc4C(F)(F)F)CC3)c2cc1OC
Marked response: 52.8 µM (inactive)

Exam item: Value lookup for GI50; key = CCOc1ccccc1N1CSc2nnc(-c3ccccc3)n2C1
Marked response: > 100 µM (inactive)

Exam item: Entry COC1=CC2(CC(OC)=C1OC)OC21COc2ccccc2C1=O (stereo not drawn) : reported GI50 = ?
Marked response: > 100 µM (inactive)

Exam item: Which GI50 is listed for C/C(=C\COP(=O)(O)CP(=O)(O)O)CC/C=C(\C)CNc1ccccc1 ?
Marked response: > 100 µM (inactive)

Exam item: What GI50 value was documented for this compound, COc1ccc2[nH]c3c([N+](=O)[O-])ccc(Cl)c3c(=O)c2c1 ?
Marked response: 21 µM (inactive)

Exam item: Which GI50 value belongs to NC(=O)Nc1n[nH]c(-c2ccccc2)n1 ?
Marked response: > 100 µM (inactive)

Exam item: So what's the measured GI50 for this one? N#Cc1c(=O)c2ccccc2n2c1[nH]c1ccccc12
Marked response: 54 µM (inactive)

Exam item: Give its GI50 value. Item: CN(C)C(=S)NC(=S)Nc1ccc2ccccc2c1
Marked response: 18.8 µM (inactive)

Exam item: Returns the measured GI50 for the input compound. Input: C/C(=N\NC(=S)N1CCCCCC1)c1cccc2cccnc12
Marked response: 1.71 µM (inactive)

Exam item: Item under review: O=C(/C(=C\I)c1ccccc1)c1ccccc1 . Reported GI50?
Marked response: 12.6 µM (inactive)

Exam item: Report GI50 for O=c1oc(C(C(F)(F)F)C(F)(F)F)nc2ccccc12 please.
Marked response: > 100 µM (inactive)

Exam item: What GI50 value was documented for this compound, CC(=O)N1N=C(c2c(O)ccc3ccccc23)CC1c1ccc(Cl)cc1 (stereo not drawn) ?
Marked response: 22.4 µM (inactive)

Exam item: Using the record for CNc1nncc2[nH]cnc12 , report its GI50.
Marked response: > 100 µM (inactive)

Exam item: Look up GI50: Cc1cc(N(CCC#N)CCC#N)ccc1/C=C(\NC(=O)/C=C/c1ccccc1)C(=O)Nc1ccc(Cl)cc1
Marked response: 1.94 µM (inactive)
